Listed compounds paired with reported pIC50
# target_desc: Braf V600E (recombinant V600E mutated B-RAF) (Homo sapiens, UniProt P15056, V600E)
# Sequence (P15056 whole entry V600E): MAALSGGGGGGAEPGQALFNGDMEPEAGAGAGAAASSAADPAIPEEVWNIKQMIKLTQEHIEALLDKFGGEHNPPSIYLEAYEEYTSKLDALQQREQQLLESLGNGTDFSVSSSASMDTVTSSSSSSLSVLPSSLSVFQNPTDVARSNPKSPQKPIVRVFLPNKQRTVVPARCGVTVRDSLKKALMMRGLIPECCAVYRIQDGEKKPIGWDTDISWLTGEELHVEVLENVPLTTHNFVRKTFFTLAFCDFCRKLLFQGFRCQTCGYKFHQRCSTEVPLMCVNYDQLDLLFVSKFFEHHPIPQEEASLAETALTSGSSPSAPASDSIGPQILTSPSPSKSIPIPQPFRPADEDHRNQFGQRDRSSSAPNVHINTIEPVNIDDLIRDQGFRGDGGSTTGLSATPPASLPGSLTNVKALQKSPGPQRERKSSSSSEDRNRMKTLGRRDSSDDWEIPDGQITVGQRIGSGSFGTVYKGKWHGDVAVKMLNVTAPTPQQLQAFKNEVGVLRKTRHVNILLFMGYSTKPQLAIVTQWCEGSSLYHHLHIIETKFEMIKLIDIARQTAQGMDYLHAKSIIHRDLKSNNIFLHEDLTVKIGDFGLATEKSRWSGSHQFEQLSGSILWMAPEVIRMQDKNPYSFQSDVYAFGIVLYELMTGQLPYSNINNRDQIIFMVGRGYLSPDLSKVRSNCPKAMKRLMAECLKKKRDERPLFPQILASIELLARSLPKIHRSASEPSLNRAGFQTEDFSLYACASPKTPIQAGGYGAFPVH
# measurement_protocol: In vitro assay for determining inhibition of mutant B-RAF kinase
# run_conditions: 10 nM recombinant V600E mutated B-RAF, 1 μM MEK (K97R) as substrate
pIC50: −log10 of the molar value.
quantity_name: pIC50

[[record]]
smiles = "CC(C)n1cc(-c2cccc(NC(=O)Nc3ccc(C(F)(F)F)cc3)c2)c(-c2ccncc2)n1"
target_desc = "Braf V600E (recombinant V600E mutated B-RAF) (Homo sapiens, UniProt P15056, V600E)"
quantitative_result = 8.22

[[record]]
smiles = "CCn1cc(-c2cccc(NC(=O)Nc3ccc(Cl)cc3Cl)c2)c(-c2ccncc2)n1"
target_desc = "Braf V600E (recombinant V600E mutated B-RAF) (Homo sapiens, UniProt P15056, V600E)"
quantitative_result = 8.19

[[record]]
smiles = "CCn1cc(-c2cccc(NC(=O)Nc3ccccc3F)c2)c(-c2ccncc2)n1"
target_desc = "Braf V600E (recombinant V600E mutated B-RAF) (Homo sapiens, UniProt P15056, V600E)"
quantitative_result = 7.27


====

# target_desc: Braf V600E (recombinant V600E mutated B-RAF) (Homo sapiens, UniProt P15056, V600E)
# measurement_protocol: In vitro assay for determining inhibition of mutant B-RAF kinase
# run_conditions: 10 nM recombinant V600E mutated B-RAF, 1 μM MEK (K97R) as substrate
# Procedure: In Vitro Assay for Determining Inhibition of B-RAF Kinase or Mutant B-RAF Kinase Solutions of varying concentrations of test compounds or vehicle are added to 10 nM recombinant V600E mutated B-RAF proteins incubated in the presence of different concentrations of ATP and 1 μM MEK (K97R) as substrate, as previously described (Wilhelm, S. M., et al., Cancer Res., 64: 7099-7109, 2004; Mason, C. S., et al., EMBO J. 18: 2137-2148, 1999; Marais, R., et al., J. Biol. Chem., 272: 4378-4383, 1997). […]
# 1 (yes) = IC50 below 4 nM (exclusive); 0 (no) = IC50 at/above 4 nM

[[record]]
compound = "CCn1cc(-c2cccc(NC(=O)Nc3ccc(Cl)cc3)c2)c(-c2ccncc2)n1 [Example 16]"
target_desc = "Braf V600E (recombinant V600E mutated B-RAF) (Homo sapiens, UniProt P15056, V600E)"
answer_label = "1 (yes)"

[[record]]
compound = "CCn1cc(-c2cccc(NC(=O)Nc3cccc(C(F)(F)F)c3)c2)c(-c2ccncc2)n1 [Example 7]"
target_desc = "Braf V600E (recombinant V600E mutated B-RAF) (Homo sapiens, UniProt P15056, V600E)"
answer_label = "0 (no)"

[[record]]
compound = "CCn1cc(-c2cccc(NC(=O)Nc3cccc(C)c3)c2)c(-c2ccncc2)n1 [Example 11]"
target_desc = "Braf V600E (recombinant V600E mutated B-RAF) (Homo sapiens, UniProt P15056, V600E)"
answer_label = "0 (no)"

[[record]]
compound = "CC(C)(C)n1cc(-c2cccc(NC(=O)Nc3ccc(C(F)(F)F)cc3)c2)c(-c2ccncc2)n1 [Example 25]"
target_desc = "Braf V600E (recombinant V600E mutated B-RAF) (Homo sapiens, UniProt P15056, V600E)"
answer_label = "0 (no)"

[[record]]
compound = "CC(C)(C)c1nc(-c2ccnc(N)n2)c(-c2cccc(NC(=O)Nc3ccc(C(F)(F)F)cc3)c2F)s1 [Example 2]"
target_desc = "Braf V600E (recombinant V600E mutated B-RAF) (Homo sapiens, UniProt P15056, V600E)"
answer_label = "0 (no)"

[[record]]
compound = "CC(C)(C)c1nc(-c2ccnc(N)n2)c(-c2cccc(NC(=O)Nc3ccc(C(F)(F)F)cc3)c2)s1 [Example 1]"
target_desc = "Braf V600E (recombinant V600E mutated B-RAF) (Homo sapiens, UniProt P15056, V600E)"
answer_label = "0 (no)"

[[record]]
compound = "CCn1cc(-c2cccc(NC(=O)Nc3ccc(Cl)c(C(F)(F)F)c3)c2)c(-c2ccncc2)n1 [Example 9]"
target_desc = "Braf V600E (recombinant V600E mutated B-RAF) (Homo sapiens, UniProt P15056, V600E)"
answer_label = "1 (yes)"

[[record]]
compound = "CCn1cc(-c2cccc(NC(=O)Nc3ccc(C)cc3)c2)c(-c2ccncc2)n1 [Example 5]"
target_desc = "Braf V600E (recombinant V600E mutated B-RAF) (Homo sapiens, UniProt P15056, V600E)"
answer_label = "1 (yes)"

[[record]]
compound = "CCn1cc(-c2cccc(NC(=O)Nc3ccc(C(F)(F)F)cc3)c2)c(-c2ccncc2)n1 [Example 3]"
target_desc = "Braf V600E (recombinant V600E mutated B-RAF) (Homo sapiens, UniProt P15056, V600E)"
answer_label = "1 (yes)"

[[record]]
compound = "CCn1cc(-c2cccc(NC(=O)Nc3cccc(F)c3)c2)c(-c2ccncc2)n1 [Example 14]"
target_desc = "Braf V600E (recombinant V600E mutated B-RAF) (Homo sapiens, UniProt P15056, V600E)"
answer_label = "0 (no)"

[[record]]
compound = "CCn1cc(-c2cccc(NC(=O)Nc3ccc(C(F)(F)F)cc3)c2)c(-c2ccnc(N)n2)n1 [Example 28]"
target_desc = "Braf V600E (recombinant V600E mutated B-RAF) (Homo sapiens, UniProt P15056, V600E)"
answer_label = "1 (yes)"

[[record]]
compound = "CCn1cc(-c2cccc(NC(=O)Nc3ccccc3Cl)c2)c(-c2ccncc2)n1 [Example 13]"
target_desc = "Braf V600E (recombinant V600E mutated B-RAF) (Homo sapiens, UniProt P15056, V600E)"
answer_label = "0 (no)"

[[record]]
compound = "CCn1cc(-c2cccc(NC(=O)Nc3ccc(F)c(C(F)(F)F)c3)c2)c(-c2ccncc2)n1 [Example 8]"
target_desc = "Braf V600E (recombinant V600E mutated B-RAF) (Homo sapiens, UniProt P15056, V600E)"
answer_label = "0 (no)"

[[record]]
compound = "CCn1cc(-c2cccc(NC(=O)Nc3ccc(C(C)(C)C)cc3)c2)c(-c2ccncc2)n1 [Example 4]"
target_desc = "Braf V600E (recombinant V600E mutated B-RAF) (Homo sapiens, UniProt P15056, V600E)"
answer_label = "0 (no)"

[[record]]
compound = "CCn1cc(-c2cccc(NC(=O)Nc3ccc(I)cc3)c2)c(-c2ccncc2)n1 [Example 10]"
target_desc = "Braf V600E (recombinant V600E mutated B-RAF) (Homo sapiens, UniProt P15056, V600E)"
answer_label = "1 (yes)"

[[record]]
compound = "CCn1cc(-c2cccc(NC(=O)Nc3ccc(C(C)C)cc3)c2)c(-c2ccncc2)n1 [Example 6]"
target_desc = "Braf V600E (recombinant V600E mutated B-RAF) (Homo sapiens, UniProt P15056, V600E)"
answer_label = "1 (yes)"

